Tested on: Human immunodeficiency virus 1
Experiment notes: Anti-HIV activity was determined in MT-4 cells in the presence of 0% human serum using cytopathic effect assay
Assay type: functional, organism-based
Reported conditions: Human immunodeficiency virus 1, MT4
Task for the reader: assign each of the following compounds its reported pEC50.
// pEC50 is dimensionless: -log10 of concentration (M)

Task: Field request: pEC50 | item: CC(C)c1nc(CN(C)C(=O)N[C@H](C(=O)N[C@@H](Cc2ccccc2)[C@H](O)CN2CCN(Cc3ccccc3)C[C@H]2C(=O)NC(C)(C)C)C(C)C)cs1
Result: 7.32

Task: Try the compound COc1ccc(CN2CCN(C[C@@H](O)[C@H](Cc3ccccc3)NC(=O)[C@@H](NC(=O)OCc3csc(C)n3)C(C)C)[C@H](C(=O)NC(C)(C)C)C2)cc1OC
Result: 8.00

Task: Try the compound CC(C)c1nc(COC(=O)N[C@H](C(=O)N[C@@H](Cc2ccccc2)[C@H](O)CN2CCN(Cc3cncs3)C[C@H]2C(=O)NC(C)(C)C)C(C)C)cs1
Result: 7.92

###

Tested on: Human immunodeficiency virus 1
Experiment notes: Anti-HIV activity was determined in MT-4 cells in the presence of 0% human serum using cytopathic effect assay
Assay type: functional, organism-based
Reported conditions: Human immunodeficiency virus 1, MT4
Readout label: EC50 (nM)
The reply should contain only the number, in nM.

Task: // fetch Human immunodeficiency virus 1 EC50 for CC(C)c1nc(COC(=O)N[C@H](C(=O)N[C@@H](Cc2ccccc2)[C@H](O)CN2CCN(Cc3ccc(F)cc3)C[C@H]2C(=O)NC(C)(C)C)C(C)C)cs1
Result: 21

Task: Try the compound COc1ccc(CN2CCN(C[C@@H](O)[C@H](Cc3ccccc3)NC(=O)[C@@H](NC(=O)OCc3cnc(C)s3)C(C)C)[C@H](C(=O)NC(C)(C)C)C2)cc1OC
Result: 11

Task: Try the compound CC(C)c1nc(COC(=O)N[C@H](C(=O)N[C@@H](Cc2ccccc2)[C@H](O)CN2CCN(Cc3cccc(O)c3)C[C@H]2C(=O)NC(C)(C)C)C(C)C)cs1
Result: 40

###

Tested on: Human immunodeficiency virus 1
Experiment notes: Anti-HIV activity was determined in MT-4 cells in the presence of 0% human serum using cytopathic effect assay
Assay type: functional, organism-based
Reported conditions: Human immunodeficiency virus 1, MT4
Readout label: log10 EC50 (log10 of the value in nM)
Annotation: log10 of EC50, nM basis.

Task: // fetch Human immunodeficiency virus 1 log10 EC50 for Cc1nc(COC(=O)N[C@H](C(=O)N[C@@H](Cc2ccccc2)[C@H](O)CN2CCN(Cc3ccc4c(c3)OCO4)C[C@H]2C(=O)NC(C)(C)C)C(C)C)cs1
Result: 1.04

Task: Try the compound CC(C)c1nc(COC(=O)N[C@@H](C(=O)N[C@@H](Cc2ccccc2)[C@H](O)CN2CCN(Cc3cncs3)C[C@H]2C(=O)NC(C)(C)C)C(C)C)cs1
Result: 3.78

Task: Try the compound CC(C)c1nc(COC(=O)N[C@H](C(=O)N[C@@H](Cc2ccccc2)[C@H](O)CN2CCN(Cc3cccnc3)C[C@H]2C(=O)NC(C)(C)C)C(C)C)cs1
Result: 1.08

Task: Try the compound CC(C)c1nc(COC(=O)N[C@H](C(=O)N[C@@H](Cc2ccccc2)[C@H](O)CN2CCN(Cc3ccccc3)C[C@H]2C(=O)NC(C)(C)C)C(C)C)cs1
Result: 1.34

Task: Try the compound CC(C)c1nc(COC(=O)N[C@H](C(=O)N[C@@H](Cc2ccccc2)[C@H](O)CN2CCN(Cc3cccc4c3COC4)C[C@H]2C(=O)NC(C)(C)C)C(C)C)cs1
Result: 0.70

Task: Try the compound CC(C)c1nc(COC(=O)N[C@H](C(=O)N[C@@H](Cc2ccccc2)[C@H](O)CN2CCN(Cc3ccncc3)C[C@H]2C(=O)NC(C)(C)C)C(C)C)cs1
Result: 1.23

Task: Try the compound COc1ccc(CN2CCN(C[C@@H](O)[C@H](Cc3ccccc3)NC(=O)[C@@H](NC(=O)OCc3cnc(C(C)C)s3)C(C)C)[C@H](C(=O)NC(C)(C)C)C2)cc1OC
Result: 1.23

Task: Try the compound CC(C)c1nc(COC(=O)N[C@H](C(=O)N[C@@H](Cc2ccccc2)[C@H](O)CN2CCN(Cc3ccc4c(c3)OCO4)C[C@H]2C(=O)NC(C)(C)C)C(C)C)cs1
Result: 0.85

Task: Try the compound CC(C)c1nc(COC(=O)N[C@H](C(=O)N[C@@H](Cc2ccccc2)[C@H](O)CN2CCN(Cc3ccc(O)cc3)C[C@H]2C(=O)NC(C)(C)C)C(C)C)cs1
Result: 1.67

Task: Try the compound COc1cc(CN2CCN(C[C@@H](O)[C@H](Cc3ccccc3)NC(=O)[C@@H](NC(=O)N(C)Cc3csc(C(C)C)n3)C(C)C)[C@H](C(=O)NC(C)(C)C)C2)ccc1O
Result: 1.61

Task: Try the compound CC(C)[C@H](NC(=O)N(C)Cc1cncs1)C(=O)N[C@@H](Cc1ccccc1)[C@H](O)CN1CCN(Cc2cncs2)C[C@H]1C(=O)NC(C)(C)C
Result: 2.41

Task: Try the compound CC(C)c1nc(CN(C)C(=O)N[C@H](C(=O)N[C@@H](Cc2ccccc2)C[C@H](O)[C@H](Cc2ccccc2)NC(=O)OCc2cncs2)C(C)C)cs1 [RITONAVIR]
Result: 1.85

Reference for the values: ChEMBL document CHEMBL1131402
